Test system: RAW-Dual (murine macrophage reporter line)
assay.protocol: IRF reporter (Lucia luciferase) activity fold change vs agonist alone; higher = enhanced IRF activity
measurement.context: modulator concentration 10 µM; agonist: MPLA […]
reported.endpoint: IRF reporter

Cc1cc(OCC(=O)NN=Cc2ccc(O)c([N+](=O)[O-])c2)ccc1Cl | 1.13

Kindly consider the entry below.
Determine its reported IRF reporter: COc1cc2c(cc1OC)C1C(=O)c3ccc4c(c3OC1CO2)CCC(C)(C)O4 (stereo not drawn) 1.75

###

System: RAW-Dual (murine macrophage reporter line)
assay.protocol: IRF reporter (Lucia luciferase) activity fold change vs agonist alone; higher = enhanced IRF activity
measurement.context: modulator concentration 10 µM; agonist: LPS 0.1 ug/mL
molecules and their reported IRF reporter
// return just the number, without any unit appended

CC(C)C(=O)Nc1ccc([N+](=O)[O-])c(C(F)(F)F)c1 | 0.97
CC(=O)Nc1ccc(S(=O)(=O)N2CCC(Oc3nc(C)cc(C)n3)C2)cc1 (stereo not drawn) | 0.987
COC(CNC(=O)COc1cccc2c1OC(C)(C)C2)c1ccc(Cl)s1 (stereo not drawn) | 0.883
CC1=CC(=O)c2ccccc2C1=O | 3.57
O=C(Cc1ccc(F)cc1F)N1CCC(n2c(=O)[nH]c3ccccc3c2=O)CC1 | 1.07

Determine its reported IRF reporter: CCOC(=O)C(CCc1ccccc1)NC1CCc2ccccc2N(CC(=O)O)C1=O.Cl (stereo not drawn) 1.24

Determine its reported IRF reporter: CC(=Cc1ccccc1)CN1CC(C)OC(C)C1 (stereo not drawn) 1.28

Determine its reported IRF reporter: CN(C)CCCN1c2ccccc2Sc2ccc(Cl)cc21 [Prestw-64] 2.26

Determine its reported IRF reporter: "O=C(O)c1cc(O)c2ccccc2n1" 1.21

Determine its reported IRF reporter: COc1cc2c(cc1OC)C(=O)C(CC1CCN(Cc3ccccc3)CC1)C2 (stereo not drawn) 0.813

Determine its reported IRF reporter: "Cc1cccc(C)c1OCC(=O)N[C@@H](Cc1ccccc1)[C@@H](O)C[C@H](Cc1ccccc1)NC(=O)[C@H](C(C)C)N1CCCNC1=O" 1.2
